molecular target: BRG1 (Homo sapiens); construct: either BRM primary antibody (Cell signaling Cat #11966) or BRG primary antibody (Abcam, ab 110641); endogenous in cells; host or cells: SW1573; assay: Immunofluorescence assay for BRG1 degradation in SW1573 cells; format: cell-based; settings: SW1573, 20 h, 20 hours incubation, normalized to a known degrader control, read-out: BRG1 IF Degradation Sinf (%)
Sequence (P51532 whole entry): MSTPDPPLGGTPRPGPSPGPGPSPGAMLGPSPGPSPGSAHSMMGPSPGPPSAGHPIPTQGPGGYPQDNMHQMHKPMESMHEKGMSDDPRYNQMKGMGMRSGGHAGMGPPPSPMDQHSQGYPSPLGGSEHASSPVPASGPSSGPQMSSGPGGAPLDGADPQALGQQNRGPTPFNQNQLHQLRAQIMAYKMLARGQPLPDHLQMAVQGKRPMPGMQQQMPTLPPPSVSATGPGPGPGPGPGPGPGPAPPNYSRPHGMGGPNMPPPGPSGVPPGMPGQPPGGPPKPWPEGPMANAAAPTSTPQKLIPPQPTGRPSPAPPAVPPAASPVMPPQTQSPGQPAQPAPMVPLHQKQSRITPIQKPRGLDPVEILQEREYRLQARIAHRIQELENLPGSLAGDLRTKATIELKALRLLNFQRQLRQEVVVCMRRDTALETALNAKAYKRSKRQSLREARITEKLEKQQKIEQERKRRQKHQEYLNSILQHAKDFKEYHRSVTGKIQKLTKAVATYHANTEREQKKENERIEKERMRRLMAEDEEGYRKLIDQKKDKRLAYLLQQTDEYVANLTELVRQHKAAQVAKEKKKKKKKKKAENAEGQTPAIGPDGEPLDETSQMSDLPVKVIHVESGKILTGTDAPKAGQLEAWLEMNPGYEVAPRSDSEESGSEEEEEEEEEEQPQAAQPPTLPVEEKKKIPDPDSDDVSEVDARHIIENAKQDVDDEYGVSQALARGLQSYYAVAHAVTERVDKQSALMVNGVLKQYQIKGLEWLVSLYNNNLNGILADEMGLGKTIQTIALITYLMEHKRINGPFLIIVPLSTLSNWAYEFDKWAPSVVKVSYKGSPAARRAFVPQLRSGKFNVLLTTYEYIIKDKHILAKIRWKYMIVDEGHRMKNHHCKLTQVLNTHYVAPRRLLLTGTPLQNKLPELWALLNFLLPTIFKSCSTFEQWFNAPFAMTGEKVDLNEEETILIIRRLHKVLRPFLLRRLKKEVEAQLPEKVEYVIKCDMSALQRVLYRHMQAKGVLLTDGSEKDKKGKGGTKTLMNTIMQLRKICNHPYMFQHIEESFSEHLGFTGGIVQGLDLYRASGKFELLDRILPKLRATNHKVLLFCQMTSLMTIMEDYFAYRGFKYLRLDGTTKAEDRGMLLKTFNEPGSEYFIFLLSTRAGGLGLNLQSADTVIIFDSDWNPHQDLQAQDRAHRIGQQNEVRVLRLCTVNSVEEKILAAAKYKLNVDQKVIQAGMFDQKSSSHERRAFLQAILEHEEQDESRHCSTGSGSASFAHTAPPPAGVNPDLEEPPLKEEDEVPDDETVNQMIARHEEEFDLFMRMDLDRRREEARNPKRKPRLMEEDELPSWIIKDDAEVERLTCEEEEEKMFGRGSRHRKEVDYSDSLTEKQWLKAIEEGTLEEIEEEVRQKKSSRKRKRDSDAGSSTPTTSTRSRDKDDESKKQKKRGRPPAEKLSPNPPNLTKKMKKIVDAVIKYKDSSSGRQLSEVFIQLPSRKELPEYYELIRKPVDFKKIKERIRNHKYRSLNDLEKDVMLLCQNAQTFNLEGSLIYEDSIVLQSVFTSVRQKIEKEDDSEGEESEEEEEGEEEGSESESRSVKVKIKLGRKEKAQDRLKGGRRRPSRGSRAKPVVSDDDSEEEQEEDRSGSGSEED
measurementKind: Dmax

>  <molecule>
Nc1nnc(-c2ccccc2O)cc1N1CC2CCC(C1)N2c1ccnc(C#CCN2CCOC3CCNCC32)c1 (stereo not drawn)

>  <recordedMeasurement>
30 to 70%

$$$$
>  <molecule>
CC1CN(CC#Cc2cc(N3C4CCC3CN(c3cc(-c5ccccc5O)nnc3N)C4)ccn2)C1

>  <recordedMeasurement>
71 to 120%

$$$$
>  <molecule>
Nc1nnc(-c2ccccc2O)cc1N1CC2CCC(C1)N2c1ccnc(C#CCN2CC[C@@]3(O)C[C@H]3C2)c1

>  <recordedMeasurement>
0 to 30%

$$$$
>  <molecule>
Nc1nnc(-c2ccccc2O)cc1N1CC2CCC(C1)N2c1ccnc(C#CCN2CC(C3CC3)C2)c1

>  <recordedMeasurement>
30 to 70%

$$$$
>  <molecule>
CC1CC(O)CCN(CC#Cc2cc(N3C4CCC3CN(c3cc(-c5ccccc5O)nnc3N)C4)ccn2)C1 (stereo not drawn)

>  <recordedMeasurement>
71 to 120%

$$$$
>  <molecule>
Nc1nnc(-c2ccccc2O)cc1N1CC2CCC(C1)N2c1ccnc(C#CCN2CC(O)C2)c1

>  <recordedMeasurement>
30 to 70%

$$$$
>  <molecule>
Nc1nnc(-c2ccccc2O)cc1N1CC2CCC(C1)N2c1ccnc(C#CCN2C[C@@H]3C[C@H]2C[C@H]3O)c1

>  <recordedMeasurement>
30 to 70%

$$$$
>  <molecule>
Nc1nnc(-c2ccccc2O)cc1N1CC2CCC(C1)N2c1ccnc(C#CCN2CCCC(O)C2)c1 (stereo not drawn)

>  <recordedMeasurement>
30 to 70%

$$$$
>  <molecule>
Nc1nnc(-c2ccccc2O)cc1N1CC2CCC(C1)N2c1ccnc(C#CCN2CC3CC(CO)CC32)c1 (stereo not drawn)

>  <recordedMeasurement>
30 to 70%

$$$$
>  <molecule>
CC1CN(CC#Cc2cc(N3C4CCC3CN(c3cc(-c5ccccc5O)nnc3N)C4)ccn2)CCCC1O (stereo not drawn)

>  <recordedMeasurement>
71 to 120%

$$$$
>  <molecule>
N#CC1CCCN(CC#Cc2cc(N3C4CCC3CN(c3cc(-c5ccccc5O)nnc3N)C4)ccn2)C1 (stereo not drawn)

>  <recordedMeasurement>
30 to 70%

$$$$
>  <molecule>
Nc1nnc(-c2ccccc2O)cc1N1CC2CCC(C1)N2c1ccnc(C#CCN2CCC3(CCC3)C2)c1

>  <recordedMeasurement>
30 to 70%

$$$$
>  <molecule>
Nc1nnc(-c2ccccc2O)cc1N1CC2CCC(C1)N2c1ccnc(C#CCN2CCCCC(CO)C2)c1 (stereo not drawn)

>  <recordedMeasurement>
30 to 70%

$$$$
>  <molecule>
Nc1nnc(-c2ccccc2O)cc1N1CC2CCC(C1)N2c1ccnc(C#CCN2CCCC(F)(F)C(F)C2)c1 (stereo not drawn)

>  <recordedMeasurement>
30 to 70%

$$$$
>  <molecule>
CC1CN(CC#Cc2cc(N3C4CCC3CN(c3cc(-c5ccccc5O)nnc3N)C4)ccn2)CCC(F)(F)C1 (stereo not drawn)

>  <recordedMeasurement>
71 to 120%

$$$$
>  <molecule>
Nc1nnc(-c2ccccc2O)cc1N1CC2CCC(C1)N2c1ccnc(C#CCN2C3CCCC2COC3)c1

>  <recordedMeasurement>
0 to 30%

$$$$
>  <molecule>
CC1CCN1CC#Cc1cc(N2C3CCC2CN(c2cc(-c4ccccc4O)nnc2N)C3)ccn1 (stereo not drawn)

>  <recordedMeasurement>
30 to 70%

$$$$
>  <molecule>
Nc1nnc(-c2ccccc2O)cc1N1CC2CCC(C1)N2c1ccnc(C#CCC2CCCCN2)c1 (stereo not drawn)

>  <recordedMeasurement>
0 to 30%

$$$$
>  <molecule>
CCN(CC)CC#Cc1cc(N2C3CCC2CN(c2cc(-c4ccccc4O)nnc2N)C3)ccn1

>  <recordedMeasurement>
30 to 70%

$$$$
>  <molecule>
Nc1nnc(-c2ccccc2O)cc1N1CC2CCC(C1)N2c1ccnc(C#CCN2CC3CC(C2)C3O)c1 (stereo not drawn)

>  <recordedMeasurement>
0 to 30%

$$$$
>  <molecule>
Nc1nnc(-c2ccccc2O)cc1N1CC2CCC(C1)N2c1ccnc(C#CCN2CCC[C@@H]2CO)c1

>  <recordedMeasurement>
0 to 30%

$$$$
>  <molecule>
Nc1nnc(-c2ccccc2O)cc1N1CC2CCC(C1)N2c1ccnc(C#CC2CNC2)c1

>  <recordedMeasurement>
0 to 30%

$$$$
>  <molecule>
Nc1nnc(-c2ccccc2O)cc1N1CC2CCC(C1)N2c1ccnc(C#CCN2CCC3CNCC32)c1 (stereo not drawn)

>  <recordedMeasurement>
30 to 70%

$$$$
>  <molecule>
Nc1nnc(-c2ccccc2O)cc1N1CC2CCC(C1)N2c1ccnc(C#CCN2CCCCC(F)C2)c1 (stereo not drawn)

>  <recordedMeasurement>
30 to 70%

$$$$
>  <molecule>
Nc1nnc(-c2ccccc2O)cc1N1CC2CCC(C1)N2c1ccnc(C#CCN2CCC[C@@H]3OCC[C@@H]32)c1

>  <recordedMeasurement>
0 to 30%

$$$$
>  <molecule>
Oc1ccccc1-c1cc2c(nn1)NC[C@@H]1CN(c3ccnc(C#CCN4CCCCCC4)c3)CCN21 (single isomer, unassigned)

>  <recordedMeasurement>
71 to 120%

$$$$
>  <molecule>
CC1(F)CN(CC#Cc2cc(N3C4CCC3CN(c3cc(-c5ccccc5O)nnc3N)C4)ccn2)C1

>  <recordedMeasurement>
30 to 70%

$$$$
>  <molecule>
Cn1cc(C#Cc2cc(N3C4CCC3CN(c3cc(-c5ccccc5O)nnc3N)C4)ccn2)cn1

>  <recordedMeasurement>
0 to 30%

$$$$
>  <molecule>
Nc1nnc(-c2ccccc2O)cc1N1CC2CCC(C1)N2c1ccnc(C#CCN2CCC23CCC3)c1

>  <recordedMeasurement>
30 to 70%

$$$$
>  <molecule>
Nc1nnc(-c2ccccc2O)cc1N1CC2CCC(C1)N2c1ccnc(C#CC2CCCN2)c1 (stereo not drawn)

>  <recordedMeasurement>
0 to 30%

$$$$
